For each entry below, report its half-life value.
Test: Human liver microsomal stability of compound in microsomal protein, PBS buffer pH 7.4, NADPH, glucose-6-phosphate and glucose-6-phosphate dehydrogenase media. Aliquotes were taken at 5 time points and after stopping the reaction, supernatants were analyzed using HPLC coupled with a tandem mass spectrometer. The elimination constant, half-life, and intrinsic clearance are determined as results using linear regression analysis.
Assay type: ADME, microsomes, Microsome
Details: liver microsomes
Numbers only, in h.

1. c1ccc2sc(C3CCN(Cc4c[nH]c5ccccc45)CC3)nc2c1; 0.73

Please turn your attention to the following entry.
Exercise: Entry `NCc1cccc([C@@H]2C[C@H]2c2cc(Cl)cc(NC(=O)OCc3ccccc3)c2)c1` : reported half-life = ?
Solution: 2.44

====

Assay: Human liver microsomal stability of compound in microsomal protein, PBS buffer pH 7.4, NADPH, glucose-6-phosphate and glucose-6-phosphate dehydrogenase media. Aliquotes were taken at 5 time points and after stopping the reaction, supernatants were analyzed using HPLC coupled with a tandem mass spectrometer. The elimination constant, half-life, and intrinsic clearance are determined as results using linear regression analysis.
Format: ADME, microsomes, Microsome
Conditions: liver microsomes
Observable: microsomal CLint

A selection of reference data follows.
1) O=C(O)COc1cccc(NC(=O)c2cc(Cl)cc(NC(=O)OCc3ccccc3)c2)c1; < 10 µL/min/mg
2) CCCCNC(=O)[C@H](Nc1ccc2c(c1)CNC2)c1cc(Cl)cc(C2CC2)c1; 16.2 µL/min/mg
3) N#Cc1cccc(-c2nc3c(C(=O)Nc4ccc5c(c4)CNC5)cc(F)cc3[nH]2)c1; < 10 µL/min/mg
4) O=C(NCC(F)F)[C@H](Nc1ccc2c(c1)CNC2)c1cc(Cl)cc(C2CC2)c1; < 10 µL/min/mg

Please find the next compound below.
Exercise: Can you share its microsomal CLint? I mean this compound: `O=C(Nc1cc(Cl)cc(-c2ccc3[nH]c(C(=O)O)cc3c2)c1)OCc1ccccc1`
Solution: < 10 µL/min/mg

====

Experiment: Mouse liver microsomal stability of compound in microsomal protein, PBS buffer pH 7.4, NADPH, glucose-6-phosphate and glucose-6-phosphate dehydrogenase media. Aliquotes were taken at 5 time points and after stopping the reaction, supernatants were analyzed using HPLC coupled with a tandem mass spectrometer. The elimination constant, half-life, and intrinsic clearance are determined as results using linear regression analysis.
Format: ADME, microsomes, Microsome
Conditions: liver microsomes
Please provide measured log10 half-life for the entries that follow.
Reminder: these figures are log10 of reported half-life, in h before transformation.

Look over these answered cases.
1. N#Cc1cc2c(cc1NC(=O)c1cc(F)cc3[nH]ncc13)CNC2; -1.02
2. NCc1cccc(NC(=O)[C@@H](NC(=O)OCc2ccccc2)c2ccc(OCc3ccccc3)cc2)c1; 1.48

Please look at the items below and tell me log10 half-life for each one, in order.
1. CSc1cc2c(cc1NC(=O)c1cc(F)cc3[nH]ncc13)CNC2
2. O=C(NCCCF)[C@H](Nc1ccc2c(c1)CNC2)c1cc(Cl)cc(C2CC2)c1
3. COc1cc(-c2cc(NC(=O)c3cc(F)cc4[nH]ncc34)cc3c2CNC3)ccn1
4. O=C(Nc1ccc2c(c1)CNC2)c1cc(Br)cc2[nH]c(-c3ccccc3)nc12
5. O=C(O)c1cc(Cl)ccc1NS(=O)(=O)c1ccc(Oc2ccccc2Cl)cc1
6. Cn1ncc2c(C(=O)Nc3ccc4c(c3)CNC4)cc(Cl)cc21
7. COc1ccc(-c2nc3c(C(=O)Nc4ccc5c(c4)CNC5)cc(F)cc3[nH]2)nn1

Solution:
1. -0.67
2. 0.20
3. -0.97
4. -0.20
5. 0.26
6. 0.04
7. 0.21
